# assayed_target: T1, Avi-Tag Fc with human IL-2R beta and IL-2R gamma attached (Acrobiosystems ACRB-ILG-H82F3-25UG) (human, UniProt P14784 27-239; P31785 23-262)
# T1 construct: bought heterodimer; also called CD122 CD132; CD122/CD132 complex
# T1 sequence (looked up) 1: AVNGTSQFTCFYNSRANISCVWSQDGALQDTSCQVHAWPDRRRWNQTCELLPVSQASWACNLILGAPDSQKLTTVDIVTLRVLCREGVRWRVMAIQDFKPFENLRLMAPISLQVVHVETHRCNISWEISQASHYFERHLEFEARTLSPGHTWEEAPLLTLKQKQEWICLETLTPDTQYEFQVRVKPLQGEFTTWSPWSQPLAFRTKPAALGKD
# T1 sequence (looked up) 2: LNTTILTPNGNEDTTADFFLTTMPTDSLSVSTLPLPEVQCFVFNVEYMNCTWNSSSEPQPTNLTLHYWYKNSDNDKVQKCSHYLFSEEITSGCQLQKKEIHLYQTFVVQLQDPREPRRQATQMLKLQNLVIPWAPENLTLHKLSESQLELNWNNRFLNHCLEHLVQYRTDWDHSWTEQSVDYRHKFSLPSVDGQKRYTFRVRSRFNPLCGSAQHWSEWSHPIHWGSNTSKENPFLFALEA
# protocol_text: BLI (Octet), receptor on SAX2 sensor, MMP2-treated IL-2 as analyte
Bridges are numbered along the chain shown (N, C = ends). [ ]: non-standard residue; d: D form. Ygp = O-(8x polyethylene glycol-amino)-tyrosine; Yn3 = O-(9x polyethylene glycol-azido)-tyrosine; hSer = N[C@@H](CCO)C(=O)O; Nle = CCCC[C@H](N)C(=O)O
parameter: pKd
pKd is a log-scale quantity: -log10 of the concentration expressed in molar.

Using known records, supply pKd for CMP-167, MMP2 cleaved (ligand, not fully specified; as CMP-167 but cleavable peptide cut by MMP2 (macrocycle opened); cut site not given) APTSSSTKKTQLQLEHLLLDLQKILNGINNYKNPKLTRXLXYKFYXPKKATELKHLQCLEEELKPLEEVLXLAQSKNFHLRPRDLISNINVIVLELKGSETTFXCEYADETATIVEFLNRWITFSQSIISTLT
8.81

Give the measured pKd for CMP-165, MMP2 cleaved (ligand, disulfide 58-105 (inferred); not fully specified (residue 23, N-terminus); also: MMP2 cleaved, ring opened, cut site not given here, peptide remnants on N-terminus (via glutaryl) and on Lys23 side chain) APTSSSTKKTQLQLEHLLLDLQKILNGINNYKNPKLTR[Nle]L[hSer][Yn3]KF[Ygp][Nle]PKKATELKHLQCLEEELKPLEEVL[hSer]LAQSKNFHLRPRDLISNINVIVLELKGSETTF[hSer]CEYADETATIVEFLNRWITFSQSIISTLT
8.73

Read off the recorded pKd for CMP-166, MMP2 cleaved (ligand, not fully specified; as CMP-166 but cleavable peptide cut by MMP2 (macrocycle opened); cut site not given) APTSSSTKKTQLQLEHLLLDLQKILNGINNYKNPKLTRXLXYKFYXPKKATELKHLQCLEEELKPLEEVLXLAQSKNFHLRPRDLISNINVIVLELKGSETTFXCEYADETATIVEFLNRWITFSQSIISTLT
8.92

Tell me measured pKd for CMP-168, MMP2 cleaved (ligand, disulfide 58-105 (inferred); not fully specified (residues 9, 23); also: cleaved by MMP2, bridge opened, remnants on Lys9 and Glu23 not defined) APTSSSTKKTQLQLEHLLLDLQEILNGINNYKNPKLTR[Nle]L[hSer][Yn3]KF[Ygp][Nle]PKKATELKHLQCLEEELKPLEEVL[hSer]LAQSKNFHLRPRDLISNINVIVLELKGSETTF[hSer]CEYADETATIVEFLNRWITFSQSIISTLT please.
8.64
